- TARGET DESC: PPARγ (Homo sapiens, UniProt P37231)
- Sequence (P37231 whole entry, species assumed): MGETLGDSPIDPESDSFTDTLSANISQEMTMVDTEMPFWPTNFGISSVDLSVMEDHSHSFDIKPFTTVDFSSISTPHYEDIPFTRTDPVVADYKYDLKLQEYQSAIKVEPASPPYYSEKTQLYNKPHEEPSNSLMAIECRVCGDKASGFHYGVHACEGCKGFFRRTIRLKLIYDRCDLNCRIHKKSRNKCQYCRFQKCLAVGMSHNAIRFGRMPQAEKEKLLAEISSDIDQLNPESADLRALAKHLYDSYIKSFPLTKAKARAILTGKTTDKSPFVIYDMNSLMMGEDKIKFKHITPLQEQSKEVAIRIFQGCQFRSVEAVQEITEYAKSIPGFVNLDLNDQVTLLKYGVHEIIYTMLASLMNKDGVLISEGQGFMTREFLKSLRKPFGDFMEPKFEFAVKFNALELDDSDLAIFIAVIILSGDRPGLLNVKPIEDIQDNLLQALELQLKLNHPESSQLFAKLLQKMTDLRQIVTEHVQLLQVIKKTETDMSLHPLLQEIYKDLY
- PROTOCOL TEXT: Hela cell/luciferase reporter gene method, PPARγ agonist activity
- EXPERIMENTAL CONTEXT: Hela cells, pPPRE3-TK-Luciferase reporter, 24 hrs incubation; read-out: agonistic activity on PPARγ (EC50)
PARAMETER: EC50 (nM)

P = CSc1ccc2c(C)c(C(=O)/C=C/c3cc(Cl)c(OC(C)(C)C(=O)O)c(Cl)c3)oc2c1 [Compound 103]
Q = CSc1cccc2oc(C(=O)/C=C/c3cc(C)c(OC(C)(C)C(=O)O)c(C)c3)cc12 [Compound 60]
Hi there, can you help? I need to know whether P or Q has lower measured EC50. Write down the label of the entry you select. Q
(Q: 92.3 nM, P: 788 nM)

* * *

- TARGET DESC: PPARα (Homo sapiens, UniProt Q07869)
- Construct: expressed in transfected cells; host or cells: Hela cells
- Sequence (Q07869 whole entry, species assumed): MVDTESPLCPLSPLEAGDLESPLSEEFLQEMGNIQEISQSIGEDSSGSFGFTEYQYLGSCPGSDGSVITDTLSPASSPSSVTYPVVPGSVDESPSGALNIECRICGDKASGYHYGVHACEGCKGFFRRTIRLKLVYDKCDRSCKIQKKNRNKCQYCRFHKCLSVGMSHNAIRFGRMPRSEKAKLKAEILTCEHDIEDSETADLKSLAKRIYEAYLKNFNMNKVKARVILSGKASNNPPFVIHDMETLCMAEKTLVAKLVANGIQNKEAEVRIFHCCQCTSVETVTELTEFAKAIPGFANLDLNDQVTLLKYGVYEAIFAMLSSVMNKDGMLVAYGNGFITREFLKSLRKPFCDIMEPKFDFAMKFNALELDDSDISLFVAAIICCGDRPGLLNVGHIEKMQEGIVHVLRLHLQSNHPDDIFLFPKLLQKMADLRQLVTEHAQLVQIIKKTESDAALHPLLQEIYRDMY
- PROTOCOL TEXT: Hela cell/luciferase reporter gene method, PPARα agonist activity
- Format: cell-based
- EXPERIMENTAL CONTEXT: Hela cells, pPPRE3-TK-Luciferase reporter, 24 hrs incubation; read-out: agonistic activity on PPAα (EC50)
PARAMETER: EC50 (nM)

Previously resolved entries follow.
What reported EC50 corresponds to COc1ccc(C(=O)/C=C/c2cc(C)c(OC(C)(C)C(=O)O)c(C)c2)c2occc12 on PPARα (Homo sapiens, UniProt Q07869)? 420

Moving on to CSc1ccc2c(C)c(C(=O)/C=C/c3cc(C(C)C)c(OC(C)(C)C(=O)O)c(C(C)C)c3)oc2c1 382

Moving on to Cc1cc(/C=C/C(=O)c2oc3cc(SCC(C)C)ccc3c2C)cc(C)c1OC(C)(C)C(=O)O 58.9

Moving on to CCCSc1ccc2c(C)c(C(=O)/C=C/c3cc(C)c(OC(C)(C)C(=O)O)c(C)c3)oc2c1 121

Moving on to CSc1ccc2c(C(C)C)c(C(=O)/C=C/c3cc(C)c(OC(C)(C)C(=O)O)c(C)c3)oc2c1 105

1 = CCSc1ccc(C(=O)/C=C/c2cc(C)c(OC(C)(C)C(=O)O)c(C)c2)c2occc12
2 = Cc1cc(/C=C/C(=O)c2ccc(SCC(C)C)c3ccoc23)cc(C)c1OC(C)(C)C(=O)O
Hi there, can you help? I need to know whether 1 or 2 has lower measured EC50. Write down the label of the entry you select. 1

* * *

- PROTOCOL TEXT: Pharmacokinetic (PK) experiments after intragastric administration in rats
- Assay type: in vivo, SD rats
- EXPERIMENTAL CONTEXT: male, SD, rat, plasma, po, intragastric administration 20 mg/kg
- Method: Male SD rats, weighing 250-300 grams, were fasted overnight before testing. The test compound was dissolved in 30% sulfobutyl-R-cyclodextrin (SBE-β-CD) and administered intragastrically at a dose of 20 mg/kg. Blood was collected 15 minutes, 30 minutes, and 1, 2, 3, 4, […] and 24 hours after the administration. […]
PARAMETER: AUC(0-t) (ng·h/mL)

// query AUC(0-t) value for entry CSc1ccc2c(C)c(C(=O)/C=C/c3cc(C)c(OC(C)(C)C(=O)O)c(C)c3)oc2c1 3040

A = CSc1ccc2cc(C(=O)/C=C/c3cc(C)c(OC(C)(C)C(=O)O)c(C)c3)oc2c1
B = Cc1cc(/C=C/C(=O)c2ccc3c(c2)CCS3)cc(C)c1OC(C)(C)C(=O)O
C = CSc1ccc2cc(C(=O)/C=C/c3cc(C)c(OC(C)(C)C(=O)O)c(C)c3)sc2c1
Order the entries by their reported AUC(0-t), beginning at the minimum. Respond with the label ranking, as requested. A, C, B

* * *

- PROTOCOL TEXT: Pharmacokinetic (PK) experiments after intragastric administration in rats
- Type: in vivo, SD rats
- EXPERIMENTAL CONTEXT: male, SD, rat, plasma, po, intragastric administration 20 mg/kg
- Protocol: Male SD rats, weighing 250-300 grams, were fasted overnight before testing. The test compound was dissolved in 30% sulfobutyl-R-cyclodextrin (SBE-β-CD) and administered intragastrically at a dose of 20 mg/kg. Blood was collected 15 minutes, 30 minutes, and 1, 2, 3, 4, […] and 24 hours after the administration. […]
PARAMETER: Cmax (ng/mL)

a = COc1ccc2cc(C(=O)/C=C/c3cc(C)c(OC(C)(C)C(=O)O)c(C)c3)oc2c1
b = CSc1ccc2cc(C(=O)/C=C/c3cc(C)c(OC(C)(C)C(=O)O)c(C)c3)oc2c1
Out of a and b , name the one with the higher Cmax. Write down the label of the entry you select. a

A = CCc1c(C(=O)/C=C/c2cc(C)c(OC(C)(C)C(=O)O)c(C)c2)oc2cc(SC)ccc12
B = CSc1ccc2cc(C(=O)/C=C/c3cc(Cl)c(OC(C)(C)C(=O)O)c(Cl)c3)oc2c1
C = CSc1ccc2c(C)c(C(=O)/C=C/c3cc(Cl)c(OC(C)(C)C(=O)O)c(Cl)c3)oc2c1
Order the records by Cmax, with each subsequent value no larger than the one before. Respond with the label ranking, as requested. B, C, A

P = Cc1cc(/C=C/C(=O)c2ccc3c(c2)CCS3)cc(C)c1OC(C)(C)C(=O)O
Q = CSc1ccc(C(=O)/C=C/c2cc(C)c(OC(C)(C)C(=O)O)c(C)c2)cc1 [Elafibranor, reference compound]
R = CSc1ccc2c(C)c(C(=O)/C=C/c3cc(C)c(OC(C)(C)C(=O)O)c(C)c3)oc2c1
S = CSc1ccc2cc(C(=O)/C=C/c3cc(C)c(OC(C)(C)C(=O)O)c(C)c3)sc2c1
Order the entries by their reported Cmax, beginning at the minimum. Respond with the label ranking, as requested. S, Q, R, P
(S: 302 ng/mL, Q: 1140 ng/mL, R: 1830 ng/mL, P: 2740 ng/mL)

* * *

- TARGET DESC: PPARγ (Homo sapiens, UniProt P37231)
- PROTOCOL TEXT: Hela cell/luciferase reporter gene method, PPARγ agonist activity
- EXPERIMENTAL CONTEXT: Hela cells, pPPRE3-TK-Luciferase reporter, 24 hrs incubation; read-out: agonistic activity on PPARγ (EC50)
- Method: This example measures the biological activity of a PPAR agonist using the Hela cell/luciferase reporter gene method. The target plasmids PCMV PPARα (Ampicillin+), PCMV PPARγ (Ampicillin+), PCMV PPARδ (Ampicillin+), and pPPRE3-TK-Luciferase (Ampicillin+) were introduced into DH5a competent cells by heat shock treatment, respectively. […] The plasmid obtained by centrifugation was suspended in TE buffer, and the plasmid concentration was measured and the mixture was stored at −20° C. […]
PARAMETER: EC50 (nM)

Previously resolved entries follow.
// query EC50 value for entry CCSc1ccc2c(C)c(C(=O)/C=C/c3cc(C)c(OC(C)(C)C(=O)O)c(C)c3)oc2c1 29.3

Moving on to CSc1ccc2cc(C(=O)/C=C/c3cc(C)c(OC(C)(C)C(=O)O)c(C)c3)oc2c1 35.3

Moving on to Cc1ccc2cc(C(=O)/C=C/c3cc(C)c(OC(C)(C)C(=O)O)c(C)c3)oc2c1 167

1 = CSc1ccc(C(=O)/C=C/c2ccc(OC(C)(C)C(=O)O)cc2)c2occc12
2 = Cc1cc(/C=C/C(=O)c2ccc3c(c2)CCS3)cc(C)c1OC(C)(C)C(=O)O
3 = CSc1ccc2cc(C(=O)/C=C/c3ccc(OC(C)(C)C(=O)O)cc3)oc2c1
4 = CSc1ccc(C(=O)/C=C/c2cc(C)c(OC(C)(C)C(=O)O)c(C)c2)c2oc(C)cc12
Order the entries by their reported EC50, beginning at the minimum. Respond with the label ranking, as requested. 2, 4, 1, 3

* * *

- TARGET DESC: PPARα (Homo sapiens)
- Construct: expressed in transfected cells; host or cells: Hela cells
- PROTOCOL TEXT: Hela cell/luciferase reporter gene method, PPARα agonist activity
- Type: cell-based
- EXPERIMENTAL CONTEXT: under the experimental conditions of the present disclosure
PARAMETER: ratio of PPARγ/PPARα activated (EC50 ratio)

// query ratio of PPARγ/PPARα activated (EC50 ratio) value for entry CSc1ccc2cc(C(=O)/C=C/c3cc(C)c(OC(C)(C)C(=O)O)c(C)c3)oc2c1 8.83

1 = CSc1ccc2cc(C(=O)/C=C/c3cc(Cl)c(OC(C)(C)C(=O)O)c(Cl)c3)oc2c1
2 = CSc1ccc2c(C)c(C(=O)/C=C/c3cc(C)c(OC(C)(C)C(=O)O)c(C)c3)oc2c1
3 = CSc1ccc2c(C)c(C(=O)/C=C/c3cc(Cl)c(OC(C)(C)C(=O)O)c(Cl)c3)oc2c1
Order the records by ratio of PPARγ/PPARα activated (EC50 ratio), with each subsequent value no larger than the one before. Respond with the label ranking, as requested. 1, 3, 2
(1: 237.55, 3: 90.59, 2: 7.98)

Every entry's value here was drawn from patent US11306102B2.
